Biological target: UniProt:P08173
Sequence (P08173 whole entry): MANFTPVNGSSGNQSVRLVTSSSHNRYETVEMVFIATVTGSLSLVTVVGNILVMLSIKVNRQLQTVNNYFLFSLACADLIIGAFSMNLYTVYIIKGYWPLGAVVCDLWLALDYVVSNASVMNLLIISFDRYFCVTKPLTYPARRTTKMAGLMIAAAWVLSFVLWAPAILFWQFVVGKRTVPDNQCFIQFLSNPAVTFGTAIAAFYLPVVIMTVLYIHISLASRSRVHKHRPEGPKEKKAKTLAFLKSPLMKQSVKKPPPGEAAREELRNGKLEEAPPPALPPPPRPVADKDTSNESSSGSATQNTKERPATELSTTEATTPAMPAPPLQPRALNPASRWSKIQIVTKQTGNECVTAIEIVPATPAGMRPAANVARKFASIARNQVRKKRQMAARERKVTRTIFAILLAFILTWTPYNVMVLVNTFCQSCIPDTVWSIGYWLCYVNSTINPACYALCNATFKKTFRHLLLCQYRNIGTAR
Assay: Antagonist activity at human muscarinic M4 receptor expressed in CHO cells assessed as blockade of carbachol-induced inhibition of forskolin-stimulated cAMP accumulation
Format: functional, cell-based
Measured Endpoint: EC50 (nM)
Kindly answer with a numeric value in nM, unit omitted.

# Compound, EC50 [nM]
records = [
    ("C[N+]1(CCCC(O)(c2ccccc2)c2ccccc2)CCC(C2CC[N+](C)(CCCC(O)(c3ccccc3)c3ccccc3)CC2)CC1 (stereo not drawn)", 67),
    ("OC(CCCN1CCC(C2CCN(CCCC(O)(c3ccccc3)c3ccccc3)CC2)CC1)(c1ccccc1)c1ccccc1", 138),
]

// recorded EC50 for CCOC(=O)c1c(C)[nH]c2ccc3c(c12)CN1CCc2cc(OC)ccc2C1O3 (stereo not drawn) : 54
